Where these numbers come from: PubChem BioAssay AID463165

biological target: Regulator of G-protein signaling 4 (Homo sapiens) (UniProt P49798); assay: blockers of RGS4 function in M3R calcium signaling – cell-based, HEK293 M3R inducible RGS4, calcium flux, primary screen (AID 463165); conditions: Fluo-4 calcium flux, at 10 µM, triggered by carbachol at its EC20; active compounds read high;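 further: RGS4 expression induced by doxycycline in cells with stable M3 receptor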;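 on B-score: B-score is computed from the integrated fluorescence ratio over baseline after carbachol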
Sequence (P49798 whole entry, looked up): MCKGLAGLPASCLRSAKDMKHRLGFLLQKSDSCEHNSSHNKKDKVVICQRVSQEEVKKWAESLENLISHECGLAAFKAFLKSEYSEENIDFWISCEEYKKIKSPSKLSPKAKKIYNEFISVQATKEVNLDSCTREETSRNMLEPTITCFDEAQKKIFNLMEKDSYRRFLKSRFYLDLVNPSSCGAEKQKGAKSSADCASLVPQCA
Hit rate of the full screen: of about 310,000 compounds, about 1,400 (0.45%) were called active. This is one part of a sample in which actives are shown more often than they occur.
Property measured: B-score

Check out these entries, answers already filled in.
{"columns": ["Compound", "Tested target", "B-score"],
 "data": [
  ["COc1ccc(C(C[N+](=O)[O-])n2nc(C)cc2C)cc1 (stereo unspecified)", "Regulator of G-protein signaling 4 (Homo sapiens) (UniProt P49798)", "5.35 (active)"],
  ["O=C(NCc1ccc(F)cc1)C1CCC(CNc2c(N3CCOCC3)c(=O)c2=O)CC1 (stereo unspecified)", "Regulator of G-protein signaling 4 (Homo sapiens) (UniProt P49798)", "inactive"],
  ["Nc1c(-c2ccc(F)cc2)cnn1C1CCS(=O)(=O)C1 (stereo unspecified)", "Regulator of G-protein signaling 4 (Homo sapiens) (UniProt P49798)", "inactive"],
  ["COc1ccc(C(=O)CSc2nc(C)cc(C)n2)cc1[N+](=O)[O-]", "Regulator of G-protein signaling 4 (Homo sapiens) (UniProt P49798)", "inactive"]
]}

Return B-score measured with Regulator of G-protein signaling 4 (Homo sapiens) (UniProt P49798) given this compound: CCOC(=O)c1ccccc1NC(=O)COC(=O)CCC(=O)N1CCOCC1 inactive

And for CC(CO)NCC12CC3CC(CC(C3)C1)C2 (stereo unspecified) ? inactive

And for COc1ccc(OCc2cn3c(C)cc(C)nc3n2)cc1 ? inactive

And for O=C1Nc2ccc(Br)cc2/C1=N/N=C/C1=C(N2CCOCC2)C(=C\c2ccccc2)/CC1 ? 13.1 (active)

And for COc1ccc(-c2csc(Cc3nc(O)cs3)n2)cc1 ? inactive

And for C=CCOc1cccc(C2NC(=O)c3ccccc3O2)c1 (stereo unspecified) ? inactive

And for O=C(O)CCCCCCCCc1cn(CN2C(=O)c3ccccc3C2=O)nn1 ? inactive

###

target: Regulator of G-protein signaling 4 (Homo sapiens); experiment: blockers of RGS4 function in M3R calcium signaling – cell-based, HEK293 M3R inducible RGS4, calcium flux, primary screen (AID 463165); settings: Fluo-4 calcium flux, at 10 µM, triggered by carbachol at its EC20;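 further: RGS4 expression induced by doxycycline in cells with stable M3 receptor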
Among all 310,000 compounds or so, about 1,400 (0.45%) were called active.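 Rule for the calls: active = B-score, a plate-corrected calcium signal, over three deviations above library mean, with baseline fluorescence within five deviations of library mean; inactive = the rest.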 The sample as a whole holds a higher share of actives than the screen did.
Please answer using one outcome listed in TRUE for active, FALSE for inactive

Can you look up the reported call for CC(=O)Nc1ccc(-c2csc(NC=C3C(=O)OC(C)(C)OC3=O)n2)cc1 for me? FALSE

###

target: Regulator of G-protein signaling 4 (Homo sapiens) (UniProt P49798); assay: blockers of RGS4 function in M3R calcium signaling – cell-based, HEK293 M3R inducible RGS4, calcium flux, primary screen (AID 463165); details: Fluo-4 calcium flux, at 10 µM, triggered by carbachol at its EC20; active compounds read high;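 further: RGS4 expression induced by doxycycline in cells with stable M3 receptor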;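 on B-score: B-score is computed from the integrated fluorescence ratio over baseline after carbachol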
In all, about 310,000 compounds went through this assay and about 1,400 (0.45%) were called active. This excerpt belongs to a sample that is enriched for actives.
Property measured: B-score

Check out these entries, answers already filled in.
{"columns": ["Compound", "Readout value"],
 "data": [
  ["C=CCOc1ccc(/C=C2/C(=O)ON=C2C)cc1OCC", "9.13 (active)"],
  ["Cc1cc(C)nc(S/C=C/C(=O)c2ccccc2)n1", "10.7 (active)"],
  ["Nc1ccccc1SC(C[N+](=O)[O-])c1ccccc1 (centres undefined)", "7 (active)"],
  ["NC(=O)NC(=O)CSc1nc2cc([N+](=O)[O-])ccc2n1-c1cccc(C(F)(F)F)c1", "inactive"],
  ["CC(=O)c1cccc(NC(=O)C2CCCN2S(=O)(=O)c2cccc3nsnc23)c1 (centres undefined)", "inactive"]
]}

Recorded B-score for CCOC(=O)C1=NN(c2ccc(Cl)cc2)/C(=C/C2=NCCc3cc(OC)c(OC)cc32)S1 , please? 4.81 (active)

And for C#CCOc1ccccc1/C=C1/C(=O)ON=C1C ? inactive

And for COc1cc(/C=C2/C(=O)ON=C2C)ccc1OCc1ccccc1F ? inactive

And for Cc1cccc(C)c1-n1c(C)cc(/C=C2\C(=O)NN(c3ccccc3)C2=O)c1C ? inactive

And for Nc1ccc(-c2nnc(-c3ccccc3)o2)cc1 ? inactive

And for CC1=NOC(=O)/C1=C\c1ccccc1 ? inactive

And for CCOC(=O)C1=C(CN2CCc3ccccc32)NC(=O)NC1c1ccc(Cl)cc1 (centres undefined) ? inactive

And for CCOc1ccc(/C=N/NC(=O)CSc2ccccn2)cc1O ? 4.74 (active)

And for O=C(CN1CCCCCC1)Nc1ccc(Cl)cc1F ? inactive

And for COc1cc(/C=N/O)cc(Br)c1OCc1cccc(Cl)c1 ? inactive
